Entries and their measured kcat follow.
Substrate: CN(C)c1ccc(N=Nc2ccc(S(=O)(=O)N[C@@H](CC[S@@+](C)[O-])C(=O)O)cc2)cc1
Assay: HPLC of dabsyl-Met, Lineweaver-Burk
Type: biochemical, Mus musculus
Settings: 20 mM DTT, 50 mM sodium phosphate pH 7.5, 50 mM NaCl, 37 °C, Sec form from NIH 3T3
Numeric only. Scale: s⁻¹

Recorded results for 3 proteins are shown here.
protein	kcat [s⁻¹]
MsrB1 (Sec-containing MsrB1; Cys form MsrB1-Cys) (Mus musculus; F97N) (protein, full length, monomer; Sec forms: natural SECIS element, C-terminal His tag (five His added to own C-terminal His), from NIH 3T3 cells; C-terminally tagged form of similar activity also made) MSFCSFFGGEVFQNHFEPGVYVCAKCSYELFSSHSKYAHSSPWPAFTETIHPDSVTKCPEKNRPEALKVSCGKCGNGLGHEFLNDGPKRGQSRFUINSSSLKFVPKGKEAAASQGH	0.01
MsrB1 (Sec-containing MsrB1; Cys form MsrB1-Cys) (Mus musculus) (protein, full length, monomer; Sec forms: natural SECIS element, C-terminal His tag (five His added to own C-terminal His), from NIH 3T3 cells; C-terminally tagged form of similar activity also made) MSFCSFFGGEVFQNHFEPGVYVCAKCSYELFSSHSKYAHSSPWPAFTETIHPDSVTKCPEKNRPEALKVSCGKCGNGLGHEFLNDGPKRGQSRFUIFSSSLKFVPKGKEAAASQGH	0.223
MsrB1 (Sec-containing MsrB1; Cys form MsrB1-Cys) (Mus musculus; F97N/G77H) (protein, full length, monomer; Sec forms: natural SECIS element, C-terminal His tag (five His added to own C-terminal His), from NIH 3T3 cells; C-terminally tagged form of similar activity also made) MSFCSFFGGEVFQNHFEPGVYVCAKCSYELFSSHSKYAHSSPWPAFTETIHPDSVTKCPEKNRPEALKVSCGKCGNHLGHEFLNDGPKRGQSRFUINSSSLKFVPKGKEAAASQGH	0.04

Alright, here's another protein for you.
Per the record, MsrB1 (Sec-containing MsrB1; Cys form MsrB1-Cys) (Mus musculus; G77H) (protein, full length, monomer; Sec forms: natural SECIS element, C-terminal His tag (five His added to own C-terminal His), from NIH 3T3 cells; C-terminally tagged form of similar activity also made) MSFCSFFGGEVFQNHFEPGVYVCAKCSYELFSSHSKYAHSSPWPAFTETIHPDSVTKCPEKNRPEALKVSCGKCGNHLGHEFLNDGPKRGQSRFUIFSSSLKFVPKGKEAAASQGH has kcat of 0.0433
